System: Aspergillus fumigatus
Experiment: Antifungal activity in vitro, resazurin growth inhibition screen: Aspergillus fumigatus
Format: cell-based
Conditions: Aspergillus fumigatus B42928; read-out: Inf. E pIC50 (converted)
quantity_measured: IC50 (nM)

molecule	quantity_measured	reading_qualifier	numeric_readout
O=C1CCCc2cc(C3=NCc4cccc(Cl)c4-n4cccc43)ccc21	IC50	=	32400
Clc1cccc2c1CN=C(c1ccc3c(c1)CCC3)c1cccn1-2	IC50	=	269
O=C1OCc2ccc(C3=NCc4c(Cl)cccc4-n4cccc43)cc21	IC50	>	64600
Cl.Clc1cccc2c1CNC(c1ccc3c(c1)CCC3)c1cccn1-2 (stereo not drawn)	IC50	=	151
O=C1CCc2cc(C3=NCc4cccc(Cl)c4-n4cccc43)ccc21	IC50	=	2400
Clc1ccc2c(c1Cl)CN=C(c1ccc3c(c1)CCC3)c1cccn1-2	IC50	=	14100
O=C1OCc2ccc(C3=NCc4c(Cl)cc(Cl)cc4-n4cccc43)cc21	IC50	>	64600
Fc1cccc2c1CN=C(c1ccc3c(c1)OC(F)(F)O3)c1cccn1-2	IC50	=	56.2
Fc1cccc2c1CN=C(c1ccc3c(c1)CCC(F)(F)O3)c1cccn1-2	IC50	>	64600
